testedTarget: SARS-CoV-2 prefusion-stabilized spike protein (SARS-CoV-2-PreS) (SARS-CoV-2, UniProt P0DTC2 14-1208)
experiment: Biacore, apparent affinity
pKd: −log10 of the molar value.
Reported pKd by item:
observedProperty: pKd

INSERT INTO results (binder, signqualifier, reading) VALUES
  ('6A1 VHH (VHH) VHH: QVQLVESGGGLVQAGGSLRLSCTASGNIFSVNVMGWHRQAPGKRRELVAALTNDGRRNYADSVKGRFTISRDNAKNTIYLEMNSLKPEDTAVYYCGTGTLESGFNSWGQGLQVTVSS', '<', 6.30),
  ('9B2 VHH (VHH) VHH: QVQLVESGGGLVQPGGSLRLSCAASGFTLDNYAIGWFRQAPGKEREGVSCISSSDGDTQYADSVKGRFTISRDNAKNTVYLQMNSLKPEDTAVYYCAVEKVYARSWFFHLCSELDFGSWGQGTQVTVSS', '=', 9.21);
